The measured values listed here are drawn from patent US11780845B2.

Assay target: FGFR2 (Homo sapiens (Human), UniProt P21802)
Sequence (P21802 22-821): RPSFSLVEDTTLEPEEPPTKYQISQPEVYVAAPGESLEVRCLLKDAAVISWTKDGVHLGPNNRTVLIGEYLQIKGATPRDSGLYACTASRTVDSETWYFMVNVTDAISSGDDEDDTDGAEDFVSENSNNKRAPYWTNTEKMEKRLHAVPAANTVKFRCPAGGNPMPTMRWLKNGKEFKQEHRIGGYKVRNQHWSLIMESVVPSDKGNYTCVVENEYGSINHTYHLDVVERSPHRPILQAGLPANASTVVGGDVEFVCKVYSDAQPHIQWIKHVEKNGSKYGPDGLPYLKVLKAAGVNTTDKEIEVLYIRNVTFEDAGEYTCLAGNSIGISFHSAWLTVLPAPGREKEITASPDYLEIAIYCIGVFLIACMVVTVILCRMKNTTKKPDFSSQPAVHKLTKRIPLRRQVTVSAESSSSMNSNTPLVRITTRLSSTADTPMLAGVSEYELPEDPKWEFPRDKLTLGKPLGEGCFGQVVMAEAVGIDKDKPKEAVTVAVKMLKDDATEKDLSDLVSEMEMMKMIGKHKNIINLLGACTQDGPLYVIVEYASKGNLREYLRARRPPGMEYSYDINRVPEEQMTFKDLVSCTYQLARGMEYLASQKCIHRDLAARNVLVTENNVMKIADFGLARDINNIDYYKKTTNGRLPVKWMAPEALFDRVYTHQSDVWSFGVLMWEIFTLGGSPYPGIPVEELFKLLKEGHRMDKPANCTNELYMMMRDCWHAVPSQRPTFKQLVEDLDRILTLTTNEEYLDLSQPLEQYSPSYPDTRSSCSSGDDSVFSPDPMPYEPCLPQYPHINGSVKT
Procedure details: FGFR2 Biochemical Caliper Assay
pIC50: −log10 of the molar value.
Here, each record is paired with measured pIC50 data.

CC#CC(=O)Nc1ccc(-c2c(-c3ccc(Oc4ncccn4)cc3)c3c(N)ncnc3n2C)cc1 : > 7.00
C=C(C)C(=O)Nc1ccc(-c2c(-c3ccc(C(=O)N4CCCCC4C)cc3)c3c(N)ncnc3n2C)cc1 (stereo not shown) : > 7.00
C=C(C)C(=O)Nc1ccc(-c2c(-c3ccc(C(=O)N4CC5CC4(C(F)F)C5)cc3)c3c(N)ncnc3n2C)cc1 : > 7.00

With those in mind, consider the next compound.
Prompt: Need pIC50, item "C=C(C)C(=O)Nc1ccc(-c2c(-c3ccc(OCC)c(OCC)c3)c3c(N)ncnc3n2C)cc1"
Response: 4.00 to 6.00

* * *

Assay target: FGFR2 (Homo sapiens (Human), UniProt P21802)
Procedure details: Biochemical FGFR2 Caliper assay
pIC50: −log10 of the molar value.
Here, each record is paired with measured pIC50 data.

Answered cases to consult:
C=CC(=O)Nc1ccc(-c2c(-c3cc4ccccc4s3)c3c(C)ncnc3n2C)cc1 [Example 1223] : 4.00 to 6.00
C=CC(=O)N1CCC(n2cc(-c3c(-c4ccc(C(=O)N(C)Cc5nc(C)no5)cc4)c4c(N)ncnc4n3C)cn2)CC1 [Example 849] : 6.60 to 7.00
C=C(C)C(=O)Nc1ccc(-c2c(-c3ccc4nc(C)oc4c3)c3c(N)ncnc3n2C)cc1 [Example 1274] : 4.00 to 6.00
C#Cc1cc(CC)c(-c2c(-c3ccc(Oc4nccc(C)n4)c(F)c3)c3c(N)ncnc3n2C)cn1 [Example 1217] : > 7.00

Prompt: Need pIC50, item C=C1CCN(c2ccc(-c3c(C4=CC[C@@H](C(=O)N5CCCC5)CC4)c4c(C)ncnc4n3C)c(Cl)c2)C1=O (single isomer, unassigned) [Example 1140]
Response: > 7.00

Prompt: Need pIC50, item COCC#Cc1cc(C)c(-c2c(-c3ccc(Oc4nccc(C)n4)cc3)c3c(N)ncnc3n2C)cn1 [Example 1386]
Response: > 7.00

Prompt: Need pIC50, item C=CS(=O)(=O)N1CC[C@@H](c2c(-c3ccc(C(=O)N4CCCC4)cc3)c3c(N)ncnc3n2C)C1 (single isomer, unassigned) [Example 864]
Response: > 7.00

Prompt: Need pIC50, item C#Cc1cc(C)c(-c2c(C3=CC[C@]4(CC3)Cc3ccc(C)nc3C4=O)c3c(N)ncnc3n2C)cn1 [Example 1398]
Response: > 7.00

Prompt: Need pIC50, item C=C(C)C(=O)Nc1ccc(-c2c(C3=CCN(Cc4ccccc4)CC3)c3c(N)ncnc3n2C)cc1 [Example 1189]
Response: > 7.00

Prompt: Need pIC50, item COCC#Cc1ncc(-c2c(-c3ccc(Oc4nccc(C)n4)cc3)c3c(N)ncnc3n2C)c(C)n1 [Example 1232]
Response: > 7.00

Prompt: Need pIC50, item C=C(C)C(=O)Nc1ccc(-c2c(-c3cnc4ccccc4c3)c3c(N)ncnc3n2C)cc1 [Example 1284]
Response: 4.00 to 6.00

Prompt: Need pIC50, item C=C1CCN(c2ccc(-c3c(-c4ccc(Oc5nccc(C)n5)cc4)c4c(N)ncnc4n3C)cn2)C1=O [Example 1077]
Response: > 7.00

Prompt: Need pIC50, item C=CS(=O)(=O)N1CCC(c2c(-c3ccc(C(=O)N4CCCC4)cc3)c3c(N)ncnc3n2C)C1 (centres unmarked) [Example 859]
Response: 4.00 to 6.00

Prompt: Need pIC50, item C=CC(=O)N1CC(c2c(-c3ccc(C(=O)c4nccc(C)n4)cc3F)c3c(N)ncnc3n2C)C[C@@H]1C (some centres unmarked) [Example 885]
Response: 4.00 to 6.00
